# experiment_summary: Plasma concentration in APP YAC Tg mouse model at 30 mg/kg after 6 hrs
# Format: ADME, organism-based
assay_metric: concentration at 6 h
Could you write the number and then its unit?

INPUT: Any idea what concentration at 6 h was measured for COc1cc(-c2cn([C@H]3CCc4c(F)cccc4N(CC(F)(F)F)C3=O)nn2)ccc1-n1cnc(C)c1 ?
OUTPUT: 5.1 µM

---

# experiment_summary: in vivo
# conditions: APP YAC Tg, mouse, plasma, 100 mg/kg
assay_metric: concentration at 6 h (µM)
Give just the number in µM; leave the unit off.

INPUT: So what's the measured concentration at 6 h for this one? COc1cc(-c2cn([C@H]3CCc4c(F)cccc4N(CC(F)(F)F)C3=O)nn2)ccc1-n1cnc(C(F)(F)F)c1
OUTPUT: 4.5

---

# experiment_summary: in vivo
# conditions: APP YAC Tg, mouse, plasma, 50 mg/kg
assay_metric: concentration at 6 h (µM)
# unit: µM | format: bare number

INPUT: Item under review: Cc1cn(-c2ccc(-c3cn([C@H]4CCc5c(F)cccc5N(CC(F)(F)F)C4=O)nn3)cc2F)cn1 . Reported concentration at 6 h?
OUTPUT: 15

---

# experiment_summary: in vivo
# conditions: Sprague-Dawley, rat, iv, 1 mg/kg
assay_metric: Vd (L/kg)
API: value field is a number in L/kg; no unit string.

INPUT: Which Vd value belongs to COc1cc(-c2cn([C@H]3CCc4c(F)cccc4N(CC(F)(F)F)C3=O)nn2)ccc1-n1cnc(C)c1 ?
OUTPUT: 4.8

---

# experiment_summary: in vivo
# conditions: beagle, dog
assay_metric: half-life (min)
Answer in min, number only, no unit symbol.

INPUT: Consider the compound COc1cc(-c2cn([C@H]3CCc4c(F)cccc4N(CC(F)(F)F)C3=O)nn2)ccc1-n1cnc(C)c1 and give its measured half-life.
OUTPUT: 42

---

# experiment_summary: in vivo
# conditions: Sprague-Dawley, rat
assay_metric: half-life (min)
Numbers only; they are read as min.

INPUT: Using the record for COc1cc(-c2cn([C@H]3CCc4c(F)cccc4N(CC(F)(F)F)C3=O)nn2)ccc1-n1cnc(C)c1 , report its half-life.
OUTPUT: 48

---

# experiment_summary: in vivo
# conditions: beagle, dog, iv
assay_metric: clearance (mL/min/kg)
Provide only the numeric value, understood in mL/min/kg.

INPUT: What value of measured clearance is listed for COc1cc(-c2cn([C@H]3CCc4c(F)cccc4N(CC(F)(F)F)C3=O)nn2)ccc1-n1cnc(C)c1 ?
OUTPUT: 98

---

# experiment_summary: in vitro
# conditions: dog, hepatocytes
assay_metric: CLint scaled (mL/min/kg)
Provide only the numeric value, understood in mL/min/kg.

INPUT: Recorded CLint scaled of COc1cc(-c2cn([C@H]3CCc4c(F)cccc4N(CC(F)(F)F)C3=O)nn2)ccc1-n1cnc(C)c1 , please.
OUTPUT: 400

---

# experiment_summary: physchem
# conditions: buffer, pH 2
assay_metric: solubility (µM)
Only the number, expressed in µM, is required.

INPUT: Bench note: what solubility did COc1cc(-c2cn([C@H]3CCc4c(F)cccc4N(CC(F)(F)F)C3=O)nn2)ccc1-n1cnc(C)c1 show?
OUTPUT: 170

---

# experiment_summary: Drug uptake in brain of APP YAC Tg mouse model at 30 mg/kg after 6 hrs
# Format: ADME, organism-based
# conditions: read-out: Drug uptake
assay_metric: concentration at 6 h
Give me the value, and tack the unit on after it.

INPUT: Need concentration at 6 h of COc1cc(-c2cn([C@H]3CCc4c(F)cccc4N(CC(F)(F)F)C3=O)nn2)ccc1-n1cnc(C)c1 , thanks.
OUTPUT: 1600 nM

---

# experiment_summary: in vivo
# conditions: APP YAC Tg, mouse, brain, 50 mg/kg
assay_metric: concentration at 6 h (µM)
Write the value in µM as a bare number.

INPUT: Given Cc1cn(-c2ccc(-c3cn([C@H]4CCc5c(F)cccc5N(CC(F)(F)F)C4=O)nn3)cc2F)cn1 , state its recorded concentration at 6 h.
OUTPUT: 6.8

The measured values listed here are drawn from ChEMBL document CHEMBL3608233.
